// provenance: patent US8153649B2

- Experimental System: UniProt P31639
- Assay Comment: 14C-AMG uptake in BHK cells transfected with SGLT2
- Condition Context: 37° C., 90 min
Measurement Type: IC50

Give IC50; test system UniProt P31639; compound Cc1cccc(C)c1Nc1c(-c2ccccc2-c2ccc(C(N)=O)o2)nc2ccc(F)cn12 [Compound A7]
1 to 10 µM

Give IC50; test system UniProt P31639; compound Cc1cccc(C)c1Nc1c(-c2ccccc2-n2cccn2)nc2ccc(F)cn12 [Compound A6]
1 to 10 µM

Give IC50; test system UniProt P31639; compound Cc1cccc(C)c1Nc1c(-c2c(Cl)cccc2-c2nnc(N)o2)nc2ccc(F)cn12 [Compound B2]
0.01 to 1 µM

Give IC50; test system UniProt P31639; compound Cc1nc(-c2ccccc2-c2nc3ccc(F)cn3c2Nc2c(C)cccc2C)no1 [Compound A10]
0.01 to 1 µM

Give IC50; test system UniProt P31639; compound CNc1nnc(-c2sc3ccccc3c2-c2nc3ccc(F)cn3c2Nc2c(C)cccc2C)o1 [Compound C13]
0.01 to 1 µM

Give IC50; test system UniProt P31639; compound Cc1cccc(C)c1Nc1c(-c2ccccc2-c2cccnc2)nc2ccc(F)cn12 [Compound A11]
0.01 to 1 µM

Give IC50; test system UniProt P31639; compound Cc1cccc(C)c1Nc1c(-c2ccccc2-c2nnc(N)o2)nc2ccc(F)cn12 [Compound B1]
0.01 to 1 µM

Give IC50; test system UniProt P31639; compound Cc1cccc(C)c1Nc1c(-c2c(-n3cccn3)cccc2-n2cccn2)nc2ccc(F)cn12 [Compound A5]
1 to 10 µM

* * *

- Experimental System: SGLT2 (Homo sapiens, UniProt P31639)
- Sequence (P31639 whole entry): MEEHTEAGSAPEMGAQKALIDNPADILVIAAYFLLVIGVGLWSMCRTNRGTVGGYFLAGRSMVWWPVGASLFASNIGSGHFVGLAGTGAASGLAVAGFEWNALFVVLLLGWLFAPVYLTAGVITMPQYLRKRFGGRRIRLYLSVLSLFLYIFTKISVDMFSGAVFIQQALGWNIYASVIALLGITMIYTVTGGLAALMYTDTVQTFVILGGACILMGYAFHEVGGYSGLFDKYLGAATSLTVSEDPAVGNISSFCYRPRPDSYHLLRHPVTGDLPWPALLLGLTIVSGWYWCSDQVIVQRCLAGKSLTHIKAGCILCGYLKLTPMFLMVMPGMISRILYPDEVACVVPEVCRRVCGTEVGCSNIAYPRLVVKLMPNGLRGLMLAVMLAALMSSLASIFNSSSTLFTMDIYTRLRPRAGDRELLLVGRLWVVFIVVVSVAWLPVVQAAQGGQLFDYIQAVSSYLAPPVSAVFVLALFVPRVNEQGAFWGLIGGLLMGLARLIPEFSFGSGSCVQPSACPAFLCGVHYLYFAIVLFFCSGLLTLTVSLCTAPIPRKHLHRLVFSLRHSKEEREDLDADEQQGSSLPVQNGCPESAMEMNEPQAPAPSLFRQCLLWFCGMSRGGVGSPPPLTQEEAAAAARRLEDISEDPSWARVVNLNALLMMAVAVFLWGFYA
- Assay Comment: 14C-AMG uptake in BHK cells transfected with SGLT2
- Condition Context: 37° C., 90 min
pIC50: −log10 of the molar value.
Provide the reported pIC50 of each item.

State its pIC50 for this compound: "CNc1nnc(-c2cc(OC)c(OC)cc2-c2nc3ccc(F)cn3c2Nc2c(C)cc(F)cc2C)o1"
5.00 to 6.00

State its pIC50 for this compound: "CNc1nnc(-c2ccccc2-c2nc3ccc(F)cn3c2Nc2c(C)cccc2C)o1"
6.00 to 8.00

State its pIC50 for this compound: "CNc1nnc(-c2c(-c3nc4ccc(F)cn4c3Nc3c(C)cccc3C)c3ccccc3n2C)o1"
6.00 to 8.00

State its pIC50 for this compound: "CNc1nnc(-c2cc(O)c(O)cc2-c2nc3ccc(F)cn3c2Nc2c(C)cc(F)cc2C)o1"
5.00 to 6.00

State its pIC50 for this compound: "Cc1cccc(C)c1Nc1c(-c2ccccc2-c2nccs2)nc2ccc(F)cn12"
< 5.00

State its pIC50 for this compound: "Cc1cccc(C)c1Nc1c(-c2ccccc2-c2cccc(C(=O)O)c2)nc2ccccn12"
< 5.00

State its pIC50 for this compound: "Cc1cccc(C)c1Nc1c(-c2ccccc2-c2ccc([N+](=O)[O-])s2)nc2ccc(F)cn12"
5.00 to 6.00

State its pIC50 for this compound: "Cc1cccc(C)c1Nc1c(-c2ccccc2-c2nnc(N(C)C)o2)nc2ccc(F)cn12"
6.00 to 8.00

* * *

Provide the reported IC50 of each item.
- Experimental System: SGLT1 (Homo sapiens)
- Sequence (P13866 whole entry): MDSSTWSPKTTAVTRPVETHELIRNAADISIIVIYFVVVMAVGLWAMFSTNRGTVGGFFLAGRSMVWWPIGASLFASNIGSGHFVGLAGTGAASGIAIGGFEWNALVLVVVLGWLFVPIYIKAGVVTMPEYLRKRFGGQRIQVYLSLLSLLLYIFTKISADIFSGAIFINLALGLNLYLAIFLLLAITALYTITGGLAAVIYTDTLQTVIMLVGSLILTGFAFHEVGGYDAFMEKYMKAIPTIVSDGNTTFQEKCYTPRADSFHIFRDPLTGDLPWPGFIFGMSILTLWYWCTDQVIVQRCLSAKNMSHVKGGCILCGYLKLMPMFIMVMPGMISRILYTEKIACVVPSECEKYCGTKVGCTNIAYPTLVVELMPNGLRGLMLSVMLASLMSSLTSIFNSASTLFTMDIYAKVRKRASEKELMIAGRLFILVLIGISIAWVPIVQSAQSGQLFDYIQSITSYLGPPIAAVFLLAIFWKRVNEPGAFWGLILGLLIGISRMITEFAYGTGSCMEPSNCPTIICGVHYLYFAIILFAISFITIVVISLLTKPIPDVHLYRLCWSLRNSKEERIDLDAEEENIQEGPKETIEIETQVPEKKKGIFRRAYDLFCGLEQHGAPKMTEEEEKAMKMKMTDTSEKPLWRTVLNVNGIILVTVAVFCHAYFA
- Assay Comment: 14C-AMG uptake in BHK cells transfected with SGLT1
- Condition Context: 37° C., 90 min

State its IC50 for this molecule: "CNc1nnc(-c2cc(OC)c(OC)cc2-c2nc3ccc(F)cn3c2Nc2c(C)cc(F)cc2C)o1"
> 10 µM

State its IC50 for this molecule: "Cc1cccc(C)c1Nc1c(-c2ccccc2-c2cccnc2)nc2ccc(F)cn12"
1 to 10 µM

State its IC50 for this molecule: "CNc1nnc(-c2cc(O)c(O)cc2-c2nc3ccc(F)cn3c2Nc2c(C)cc(F)cc2C)o1"
> 10 µM

State its IC50 for this molecule: "Cc1cccc(C)c1Nc1c(-c2ccccc2-n2cccn2)nc2ccc(F)cn12"
> 10 µM
